Recorded pIC50 for compounds tested on PDE1B (Homo sapiens (Human)), drawn from a number of studies.
FYI, pIC50 means -log10 of a concentration in mol per litre.

Compound: CCc1cn2c(C3CCOCC3)ncc2c(=O)n1Cc1ccc(OC)cc1
Outcome Measure: pIC50
Test Value: 8.30

Compound: Cn1c(Cc2ccc(-c3cccc(F)n3)cc2)cn2c(CC(F)(F)F)ncc2c1=O
Outcome Measure: pIC50
Test Value: 7.05

Compound: Cc1cn2c(C3CCOCC3)ncc2c(=O)n1Cc1cccc(F)c1
Outcome Measure: pIC50
Test Value: 6.92

Compound: CCOc1ncccc1-c1ccc2c(cnn2C(C)C)n1
Outcome Measure: pIC50
Test Value: 7.00

Compound: COc1ccc2c(N3CC[C@@H]4OCC[C@@H]43)ncnc2c1OC (single isomer, unassigned)
Outcome Measure: pIC50
Test Value: 6.92

[in] Which pIC50 is reported with PDE1B (Homo sapiens (Human)) for this entry: CCOc1ncccc1-c1cc(N[C@H]2CCOC2)c2c(cnn2C(C)C)n1 (single isomer, unassigned) ?
[out] 7.32

[in] Which pIC50 is reported with PDE1B (Homo sapiens (Human)) for this entry: COc1ccc(Cn2c(C)cn3c(N4CCCOCC4)ncc3c2=O)cc1 ?
[out] 7.09

[in] Which pIC50 is reported with PDE1B (Homo sapiens (Human)) for this entry: Cn1c(Cc2ccc(-c3cccc(F)n3)cc2)cn2c(C3CCOC3)ncc2c1=O (single isomer, unassigned; isomer 2) ?
[out] 7.59

* * *

pIC50: −log10 of the molar value.
Recorded pIC50 for molecules tested on PDE1B (Homo sapiens (Human), UniProt Q01064), drawn from a number of studies.
Label rule, in plain words: pIC50 of 7 and up is t, under 7 is f.

# example entries with known answers
Molecule: CCc1ncccc1-c1cc(N[C@@H]2CCOC2)c2c(cnn2C(C)C)n1
Label: f
//
Molecule: Cn1c(Cc2ccc(-c3ccccn3)cc2)cc2c(cnn2C2CCOCC2)c1=O
Label: t
//
Molecule: CCCn1ncc2nc(-c3cccnc3OCC)cc(N3CCCC3)c21
Label: f

[in] Could you verify whether the entry COc1cccnc1-c1ccc(Cc2cn3c(C4CCOCC4)ncc3c(=O)n2C)cc1 shows pIC50 of no less than 7?
[out] t

[in] Could you verify whether the entry CCCCn1c(=O)c2nnc(C3(C)CC3)n2c2ncc(CO)cc21 shows pIC50 of no less than 7?
[out] t

* * *

Recorded IC50 for molecules tested on PDE1B (Homo sapiens (Human), UniProt Q01064), drawn from a number of studies.
I'd appreciate it if you wrote the number followed by its unit.

// below: answered molecules
Molecule: Cc1ccc(Cc2nn3c(C4CCOCC4)ncc3c(=O)n2CC2CC2)cc1
Assayed Target: PDE1B (Homo sapiens (Human), UniProt Q01064)
IC50: 0.103 µM
//
Molecule: Cc1cn2c(C3(C)CC3)ncc2c(=O)n1Cc1cccc(F)c1
Assayed Target: PDE1B (Homo sapiens (Human), UniProt Q01064)
IC50: 0.052 µM
//
Molecule: CCc1cn2c(C3CCOCC3)ncc2c(=O)n1Cc1cccc(F)c1
Assayed Target: PDE1B (Homo sapiens (Human), UniProt Q01064)
IC50: 0.053 µM
//
Molecule: COc1ncncc1-c1cc(N[C@@H]2CCOC2)c2c(cnn2C(C)C)n1
Assayed Target: PDE1B (Homo sapiens (Human), UniProt Q01064)
IC50: 2.67 µM

[in] Which IC50 is reported with PDE1B (Homo sapiens (Human), UniProt Q01064) for this entry: CCOc1ncccc1-c1cc(NC(C)C)c2c(cnn2C(C)C)n1 ?
[out] 0.108 µM

[in] Which IC50 is reported with PDE1B (Homo sapiens (Human), UniProt Q01064) for this entry: COc1ccc(Cn2c(C)cn3c(N4CCOC(C)(C)C4)ncc3c2=O)cc1 ?
[out] 0.102 µM
